This collection of values is drawn from ChEMBL document CHEMBL3132757.

- assayed-system: Caspase-7 (Homo sapiens)
- Sequence (P55210 24-198 limits assumed): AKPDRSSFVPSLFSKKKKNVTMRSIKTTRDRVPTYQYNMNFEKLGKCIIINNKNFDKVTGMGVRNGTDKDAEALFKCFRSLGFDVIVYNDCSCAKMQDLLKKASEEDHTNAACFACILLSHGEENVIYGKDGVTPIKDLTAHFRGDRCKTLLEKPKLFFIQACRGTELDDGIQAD
- Sequence (P55210 207-303 limits assumed): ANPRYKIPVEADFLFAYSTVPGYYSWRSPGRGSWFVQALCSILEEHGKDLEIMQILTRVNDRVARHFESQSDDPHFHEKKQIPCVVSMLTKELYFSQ
- test-protocol: Inhibition of recombinant human caspase-7 expressed in Escherichia coli using Ac-DEVD-AMC as substrate preincubated for 30 mins before substrate addition measured after 2 hrs
pIC50: −log10 of the molar value.
measurement-name: pIC50

# molecule, meas-value
rows = [
    ("O=C1C(=O)N(Cc2ccccc2I)c2ccc(S(=O)(=O)N3CCC[C@H]3CF)cc21", 7.62),
    ("COC[C@@H]1CCCN1S(=O)(=O)c1ccc2c(c1)C(=O)C(=O)N2Cc1ccc(OC)cc1", 8.21),
    ("O=C1C(=O)N(Cc2ccc(F)cc2)c2ccc(S(=O)(=O)N3CCC[C@H]3CF)cc21", 7.85),
    ("O=C1C(=O)N(Cc2nnnn2Cc2ccccc2)c2ccc(S(=O)(=O)N3CCC[C@H]3CF)cc21", 7.60),
]

(1) O=C1C(=O)N(Cc2ccccc2[N+](=O)[O-])c2ccc(S(=O)(=O)N3CCC[C@H]3CF)cc21
(2) O=C1C(=O)N(Cc2ccc([N+](=O)[O-])cc2)c2ccc(S(=O)(=O)N3CCC[C@H]3CF)cc21
Ask: Of the two listed items, which has the higher pIC50? First: 1 Second: 2 Could you answer with the label of the item you picked?
Result: 2
